Tested on: BT-549
experiment: Cytotoxicity against human BT549 cells assessed as cell growth at 0.01 uM after 48 hrs by sulforhodamine B assay relative to control
Type: functional
condition-summary: BT-549, 48 h, read-out: Activity
compounds and their reported growth at 0.01 µM
recorded-metric: growth at 0.01 µM (%)

1) COc1cc(-c2cc(/C=C/C(=O)c3ccc(F)c(F)c3)[nH]n2)cc(OC)c1OC : 101
2) COc1ccc(-c2cc(/C=C/C(=O)c3ccc(OC)c(OC)c3)[nH]n2)cc1 : 100
3) COc1ccc(C(=O)/C=C/c2cc(-c3ccc4c(c3)OCO4)n[nH]2)cc1OC : 102
4) COc1ccc(C(=O)/C=C/c2cc(-c3ccc(OC)c(OC)c3)n[nH]2)cc1OC : 84
5) COc1cc2c(cc1OC)C(=O)/C(=C/c1cc(-c3ccc4c(c3)OCO4)n[nH]1)C2 : 96
6) COc1ccc(C(=O)/C=C/c2cc(-c3cc(OC)c(OC)c(OC)c3)n[nH]2)cc1 : 97
7) COc1ccc(-c2cc(/C=C/C(=O)c3ccc(N)cc3)[nH]n2)cc1 : 92

* * *

Test system: 786-0
experiment: Cytotoxicity against human 786-0 cells assessed as cell growth at 10 uM after 48 hrs by sulforhodamine B assay relative to control
Type: functional
condition-summary: 786-0, 48 h, read-out: Activity
// values below are reported growth at 10 µM
recorded-metric: growth at 10 µM

1. COc1ccc(C(=O)/C=C/c2cc(-c3cc(OC)c(OC)c(OC)c3)n[nH]2)cc1 : -59%
2. COc1ccc(-c2cc(/C=C/C(=O)c3ccc(N)cc3)[nH]n2)cc1OC : -48%
3. COc1cc(-c2cc(/C=C/C(=O)c3ccc(F)c(F)c3)[nH]n2)cc(OC)c1OC : 11%
4. COc1ccc(-c2cc(/C=C/C(=O)c3ccc(N)cc3)[nH]n2)cc1 : -29%

* * *

System: MOLT-4
experiment: Cytotoxicity against human MOLT4 cells assessed as cell growth at 0.01 uM after 48 hrs by sulforhodamine B assay relative to control
Type: functional
condition-summary: MOLT-4, 48 h, read-out: Activity
recorded-metric: growth at 0.01 µM (%)

1) COc1cc(-c2cc(/C=C/C(=O)c3ccc4c(c3)OCO4)[nH]n2)cc(OC)c1OC : 97
2) COc1ccc(-c2cc(/C=C/C(=O)c3cc(OC)c(OC)c(OC)c3)[nH]n2)cc1OC : 99
3) COc1cc(C(=O)/C=C/c2cc(-c3cc(OC)c(OC)c(OC)c3)n[nH]2)cc(OC)c1OC : 104
4) COc1ccc(-c2cc(/C=C/C(=O)c3ccc(N)cc3)[nH]n2)cc1OC : 108
5) COc1cc(-c2cc(/C=C/C(=O)c3ccc(F)c(F)c3)[nH]n2)cc(OC)c1OC : 108

* * *

System: NCI-H226
experiment: Cytotoxicity against human NCI-H226 cells assessed as cell growth at 100 uM after 48 hrs by sulforhodamine B assay relative to control
Assay type: functional
condition-summary: NCI-H226, 48 h, read-out: Activity
recorded-metric: growth at 100 µM

1) COc1ccc(-c2cc(/C=C/C(=O)c3ccc(N)cc3)[nH]n2)cc1OC : -55%
2) COc1cc(C(=O)/C=C/c2cc(-c3ccc4c(c3)OCO4)n[nH]2)cc(OC)c1OC : -46%
3) COc1cc(C(=O)/C=C/c2cc(-c3cc(OC)c(OC)c(OC)c3)n[nH]2)cc(OC)c1OC : -50%
4) COc1ccc(-c2cc(/C=C/C(=O)c3ccc(N)cc3)[nH]n2)cc1 : -51%
5) COc1ccc(C(=O)/C=C/c2cc(-c3ccc4c(c3)OCO4)n[nH]2)cc1OC : -20%
6) COc1cc2c(cc1OC)C(=O)/C(=C/c1cc(-c3ccc4c(c3)OCO4)n[nH]1)C2 : -46%
